B1: TPR t1 (parent)
chain: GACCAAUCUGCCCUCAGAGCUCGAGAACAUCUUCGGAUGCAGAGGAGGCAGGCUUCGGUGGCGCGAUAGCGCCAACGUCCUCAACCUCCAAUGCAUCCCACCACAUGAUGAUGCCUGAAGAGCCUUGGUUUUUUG

Variants of: B1
measurement_description: polymerase ribozyme fitness, log enrichment relative to wild type (log ratio); higher = more active; in vitro selection for triplet polymerase activity
variants and their reported polymerase ribozyme fitness (log ratio)
# respond with the number and nothing more

G10U G39C : -0.652
C3U G51U C80U : -2.32
A5G C82U C97U C124G U126A : -0.153
C70A C114A : -2.64

Qu. Find the recorded polymerase ribozyme fitness (log ratio) belonging to U54C C79A C98U C101A and report it.
Ans. -5.66

Qu. // repeat for C8U G36A A66C A84C G117A and report
Ans. -3.32

Qu. // repeat for A37G C76G C80G and report
Ans. -6.38

FYI, the data here is from the RNAGym collection of RNA variant scans (doi:10.1073/pnas.2313332121).
